Test system: CP305
METHOD: qHTS profiling for inhibitors of Plasmodium falciparum proliferation (AID 504749); also: nearly all actives have a fitted effect of over 60% in size
TEST CONDITIONS: P. falciparum in erythrocytes, SYBR Green DNA, 72 h; series mostly up to 28.7 µM
Records with an inconclusive call do not appear. The source made the active and inactive calls. Calls follow the shape of the dose curve; as a rule, active = well fitted inhibition curve with a large enough effect; inconclusive = small, poorly fitted or top-dose-only effect; inactive = flat fitted curve, though single readings scatter.
Pick from YES (active), NO (inactive) when you respond.

Use these answered entries as a reference point.
COMPOUND	STUDY TARGET	CLASSIFICATION
O=C(O)CCC/C=C\C[C@@H]1[C@@H](/C=C/[C@@H](O)COc2cccc(C(F)(F)F)c2)[C@H](O)C[C@@H]1O	CP305	NO
OB(O)O	CP305	NO
O=C(O)COc1ccccc1/C=N/NC(=O)c1ccncc1	CP305	NO
[O]=[Bi][O]C(=O)[O][Bi]=[O]	CP305	NO
Cn1cc(NC(=O)c2cc(NC(=O)c3cc(NC=O)cn3C)cn2C)cc1C(=O)NCCC(=N)N	CP305	YES

API: the following record is the query input.
Outcome logged for O.O.O.O.O.O.O.O=S(=O)([O-])[O-].[Co+2] in this assay: YES

----------
Quick reference: max response of the listed items.
Test system: KB-3-1
METHOD: Cytotoxic Profiling of Annotated Libraries Using Quantitative High-Throughput Screening (AID 1296008); also: % is scaled to controls: 0 for no effect and ±100 for the full control effect; nearly all actives have a fitted effect of over 60% in size
TEST CONDITIONS: Five cell lines viability, CellTiter-Glo ATP luminescence, 48-72 h; hits give low values
Records with an inconclusive call do not appear.
Unit % implied. Number only.

COMPOUND	STUDY TARGET	max response [%]
O=C1c2ccccc2C(=O)c2c1ccc(O)c2O	KB-3-1	-6.82
C[C@@H]1C[C@H]2[C@@H]3C[C@H](F)C4=CC(=O)C=C[C@]4(C)[C@@]3(Cl)[C@@H](O)C[C@]2(C)[C@H]1C(=O)COC(=O)C(C)(C)C	KB-3-1	41.6
CCCc1ccc(C(=O)O)cc1	KB-3-1	8.62
O=C(CO)[C@@H](O)[C@H](O)[C@@H](O)C(=O)O	KB-3-1	-10
OC/C=C/c1ccccc1	KB-3-1	-5.63
CCCCCCCCCCCC(=O)OC[C@@H](O)C1OC[C@H](O)[C@H]1O (stereo not given in full)	KB-3-1	3.33
CCCCCCCCCCCCCC(=O)OCC(COP(=O)([O-])OCC[N+](C)(C)C)OC(=O)CCCCCCCCCCCCC (stereo not given)	KB-3-1	15.8
O=C(O)c1cc(O)c2c(c1)[C@H]([C@H]1c3cc(C(=O)O)cc(O)c3C(=O)c3c(O[C@@H]4O[C@H](CO)[C@@H](O)[C@H](O)[C@H]4O)cccc31)c1cccc(O[C@@H]3O[C@H](CO)[C@@H](O)[C@H](O)[C@H]3O)c1C2=O	KB-3-1	-13.8
Cc1c(C)c2c(c(C)c1OC(=O)CCC(=O)O)CC[C@@](C)(CCC[C@H](C)CCC[C@H](C)CCCC(C)C)O2	KB-3-1	3.34
O=C1CCC(c2ccccc2)(C2CCN(Cc3ccccc3)CC2)C(=O)N1 (stereo not given)	KB-3-1	17.5

Now turn to the next compound.
For record CC/C(=C(/CC)c1ccc(OP(=O)(O)O)cc1)c1ccc(OP(=O)(O)O)cc1 the listed max response is -7.92

----------
Test system: Dd2
METHOD: qHTS profiling for inhibitors of Plasmodium falciparum proliferation (AID 504749); also: nearly all actives have a fitted effect of over 60% in size
TEST CONDITIONS: P. falciparum in erythrocytes, SYBR Green DNA, 72 h; series mostly up to 28.7 µM
Records with an inconclusive call do not appear. The source made the active and inactive calls. The call rests on the fitted dose curve; in most records, active means well fitted inhibition curve with a large enough effect; inconclusive means small, poorly fitted or top-dose-only effect; inactive means flat fitted curve, though single readings scatter.
Pick from Yes for active, No for inactive when you respond.

Use these answered entries as a reference point.
COMPOUND	CLASSIFICATION
COC(=O)CCC[N+](C)(C)C	No
C=CC[N+]1([C@H]2C[C@H]3[C@@H]4CC[C@H]5C[C@H](O)[C@@H](N6CCOCC6)C[C@]5(C)[C@H]4CC[C@]3(C)[C@H]2OC(C)=O)CCCC1	Yes
O=C(OCc1ccccc1)c1ccc(O)cc1	No
CC(C)Cc1ccc([C@@H](C)C(=O)NS(C)(=O)=O)cc1	No
CCCc1ccc(C(=O)O)cc1	No
O=c1[nH]c(=O)n([C@H]2C[C@H](O)[C@@H](CO)O2)cc1/C=C/Br	No
CNC(=O)C[C@@H](N)C(=O)N[C@@H](C(=O)N[C@@H]1C(=O)N2[C@@H]1SC(C)(C)[C@@H]2C(=O)O)c1ccc(O)cc1	No
O=P(O)(O)CP(=O)(O)O	No

Outcome logged for CCOC(=O)Cc1ccc(-c2ccccc2)cc1 in this assay: No

Outcome logged for O=C(O)c1ccc(NC(=O)[C@H](Cc2ccc(O)cc2)NC(=O)c2ccccc2)cc1 in this assay: No

Outcome logged for CS(=O)(=O)OCC(O)C(O)COS(C)(=O)=O (configuration not stated) in this assay: No

Outcome logged for NC(=S)N=Nc1ccc(NN=C(N)N)cc1 in this assay: Yes

Outcome logged for CCN(CC)CCOC(=O)c1cccnc1 in this assay: No

Outcome logged for NC(=O)CC[C@@H]1NC(=O)[C@H](Cc2ccccc2)NC(=O)[C@H](Cc2ccc(O)cc2)NC(=O)[C@@H](N)CSSC[C@@H](C(=O)N2CCC[C@H]2C(=O)N[C@@H](CCCN=C(N)N)C(=O)NCC(N)=O)NC(=O)[C@H](CC(N)=O)NC1=O in this assay: No

Outcome logged for O=C(OCc1ccccc1)c1cccnc1 in this assay: No

Outcome logged for CN=C1C=CC(=C(c2ccc(N(C)C)cc2)c2ccc(N(C)C)cc2)C=C1 in this assay: Yes

Outcome logged for C[Se]CC[C@H](N)C(=O)O in this assay: No

Outcome logged for CCOC(=O)[C@@H](N)CS in this assay: No

Outcome logged for CCCCCc1ccc(C)cc1O in this assay: No

Outcome logged for CC(C)(C)CC(C)(C)c1cc(Cc2cc(C(C)(C)CC(C)(C)C)cc(-n3nc4ccccc4n3)c2O)c(O)c(-n2nc3ccccc3n2)c1 in this assay: No

Outcome logged for C=C1C(CCl)(CCl)C2(Cl)C(Cl)C(Cl)C1(Cl)C2(Cl)Cl (configuration not stated) in this assay: Yes

Outcome logged for O=C1c2ccccc2C(=O)c2c1ccc(O)c2O in this assay: No

----------
Test system: TAB165
METHOD: qHTS profiling for inhibitors of Plasmodium falciparum proliferation (AID 504749); also: nearly all actives have a fitted effect of over 60% in size
TEST CONDITIONS: P. falciparum in erythrocytes, SYBR Green DNA, 72 h; series mostly up to 28.7 µM
Records with an inconclusive call do not appear. Calls of active or inactive are those of the source. Calls follow the shape of the dose curve; as a rule, active = well fitted inhibition curve with a large enough effect; inconclusive = small, poorly fitted or top-dose-only effect; inactive = flat fitted curve, though single readings scatter.
Pick from 1 (yes) for active, 0 (no) for inactive when you respond.

Use these answered entries as a reference point.
> print(dat)
                                   compound  classification
1  CCCCC(CC)COS(=O)(=O)O (centres undefined)          0 (no)
2           COc1ccc(C(=O)c2ccc(C)cc2)c(O)c1          0 (no)
3  C[C@]12CC[C@@H]3c4ccc(OC(=O)c5ccccc5)cc4CC[C@H]3[C@@H]1CC[C@@H]2O          0 (no)
4  O=C(CCCCCCCCCCCCC1CCCC1)Nc1ccc(S(=O)(=O)c2ccc(NC(=O)CCCCCCCCCCCCC3CCCC3)cc2)cc1          0 (no)
5                        Oc1ccc(Cl)c2c1CCC2          0 (no)

Outcome logged for NC(N)=NCC1COc2ccccc2O1 (centres undefined) in this assay: 0 (no)

Outcome logged for O=c1[nH]c(=O)n([C@H]2C[C@H](O)[C@@H](CO)O2)cc1/C=C/Br in this assay: 0 (no)

Outcome logged for Cn1cc(NC(=O)c2cc(NC(=O)c3cc(NC=O)cn3C)cn2C)cc1C(=O)NCCC(=N)N in this assay: 1 (yes)

Outcome logged for O.O.O.O.O.O.O.O=S(=O)([O-])[O-].[Co+2] in this assay: 1 (yes)

Outcome logged for CCOC(=O)c1c[nH]c2cc(OCC(C)C)c(OCC(C)C)cc2c1=O in this assay: 1 (yes)

Outcome logged for N=C(N)n1cccn1 in this assay: 0 (no)

Outcome logged for Oc1cc(O)cc(O)c1 in this assay: 0 (no)

Outcome logged for C=C1C(CCl)(CCl)C2(Cl)C(Cl)C(Cl)C1(Cl)C2(Cl)Cl (centres undefined) in this assay: 1 (yes)

Outcome logged for CNC(=O)OCc1cccc(COC(=O)NC)n1 in this assay: 0 (no)

Outcome logged for O=C(O)c1ccc(NC(=O)[C@H](Cc2ccc(O)cc2)NC(=O)c2ccccc2)cc1 in this assay: 0 (no)

Outcome logged for CC(C)(C)CC(C)(C)c1cc(Cc2cc(C(C)(C)CC(C)(C)C)cc(-n3nc4ccccc4n3)c2O)c(O)c(-n2nc3ccccc3n2)c1 in this assay: 0 (no)

Outcome logged for Cc1c(Cl)cccc1Nc1ncccc1C(=O)O in this assay: 0 (no)

Outcome logged for Cc1ncc(COP(=O)(O)O)c(CN)c1O in this assay: 0 (no)

Outcome logged for CC(=O)Oc1cc(C(F)(F)F)ccc1C(=O)O in this assay: 0 (no)
